Target Under Test: human CD33 variant D51Y (human, UniProt P20138 18-364)
Sequence (P20138 18-364 D51Y limits assumed): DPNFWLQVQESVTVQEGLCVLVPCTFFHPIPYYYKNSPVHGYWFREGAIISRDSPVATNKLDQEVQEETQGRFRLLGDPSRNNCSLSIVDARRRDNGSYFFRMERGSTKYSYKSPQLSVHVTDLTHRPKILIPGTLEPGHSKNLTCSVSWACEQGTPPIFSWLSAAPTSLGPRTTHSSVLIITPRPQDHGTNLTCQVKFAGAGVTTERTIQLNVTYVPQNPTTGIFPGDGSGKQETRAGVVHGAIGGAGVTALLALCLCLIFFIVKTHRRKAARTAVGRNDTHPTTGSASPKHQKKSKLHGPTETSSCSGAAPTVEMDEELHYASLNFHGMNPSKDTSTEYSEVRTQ
Procedure Summary: flow cytometry, IgG on cells expressing the mutant
Result Type: Mean % WT Binding

Example entries and their recorded answers appear below.
>  <Binder>
Refmab #2 (antibody, human IgG1, V domains shown, Tested in IgG format; human IgG1 Fc silent (PG-LALA)) VH: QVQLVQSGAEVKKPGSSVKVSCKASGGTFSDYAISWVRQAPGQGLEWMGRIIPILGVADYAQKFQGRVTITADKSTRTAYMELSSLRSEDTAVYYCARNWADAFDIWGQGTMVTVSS VL: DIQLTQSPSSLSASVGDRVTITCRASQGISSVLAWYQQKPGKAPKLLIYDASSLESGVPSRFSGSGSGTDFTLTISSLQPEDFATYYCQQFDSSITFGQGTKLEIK

>  <Mean % WT Binding>
69.8 % of WT

$$$$
>  <Binder>
Refmab #1 (antibody, human IgG1, V domains shown, Tested in IgG format; human IgG1 (Absolute Antibody hP67.6, Cat. No. Ab00283-10.0); also called hP67.6) VH: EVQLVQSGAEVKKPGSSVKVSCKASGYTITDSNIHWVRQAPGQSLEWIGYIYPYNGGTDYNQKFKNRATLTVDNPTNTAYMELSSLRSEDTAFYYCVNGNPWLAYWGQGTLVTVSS VL: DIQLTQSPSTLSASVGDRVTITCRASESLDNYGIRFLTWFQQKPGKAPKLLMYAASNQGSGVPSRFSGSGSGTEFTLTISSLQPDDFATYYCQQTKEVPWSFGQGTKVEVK

>  <Mean % WT Binding>
94.4 % of WT

$$$$
>  <Binder>
Refmab #3 (antibody, human IgG1, V domains shown, Tested in IgG format; human IgG1 Fc silent (PG-LALA)) VH: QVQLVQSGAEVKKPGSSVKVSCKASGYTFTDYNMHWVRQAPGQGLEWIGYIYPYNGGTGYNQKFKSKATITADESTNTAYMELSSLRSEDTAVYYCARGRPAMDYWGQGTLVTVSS VL: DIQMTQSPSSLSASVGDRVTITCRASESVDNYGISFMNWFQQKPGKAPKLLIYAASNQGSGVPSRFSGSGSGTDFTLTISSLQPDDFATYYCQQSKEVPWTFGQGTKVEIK

>  <Mean % WT Binding>
87.2 % of WT

$$$$

# binder Refmab #4 (antibody, human IgG1, V domains shown, Tested in IgG format; human IgG1 Fc silent (PG-LALA)) VH: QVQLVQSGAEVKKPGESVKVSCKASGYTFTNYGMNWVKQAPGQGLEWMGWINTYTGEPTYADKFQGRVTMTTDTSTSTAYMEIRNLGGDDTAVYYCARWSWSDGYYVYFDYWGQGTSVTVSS VL: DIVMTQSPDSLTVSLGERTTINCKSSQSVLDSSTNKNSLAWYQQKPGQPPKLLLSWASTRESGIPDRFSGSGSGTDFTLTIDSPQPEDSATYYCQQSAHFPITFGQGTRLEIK ; its Mean % WT Binding = 61.9 % of WT
